# assayed-target: PI3Kβ (Homo sapiens (Human), UniProt P42338)
# Sequence (P42338 whole entry, canonical isoform): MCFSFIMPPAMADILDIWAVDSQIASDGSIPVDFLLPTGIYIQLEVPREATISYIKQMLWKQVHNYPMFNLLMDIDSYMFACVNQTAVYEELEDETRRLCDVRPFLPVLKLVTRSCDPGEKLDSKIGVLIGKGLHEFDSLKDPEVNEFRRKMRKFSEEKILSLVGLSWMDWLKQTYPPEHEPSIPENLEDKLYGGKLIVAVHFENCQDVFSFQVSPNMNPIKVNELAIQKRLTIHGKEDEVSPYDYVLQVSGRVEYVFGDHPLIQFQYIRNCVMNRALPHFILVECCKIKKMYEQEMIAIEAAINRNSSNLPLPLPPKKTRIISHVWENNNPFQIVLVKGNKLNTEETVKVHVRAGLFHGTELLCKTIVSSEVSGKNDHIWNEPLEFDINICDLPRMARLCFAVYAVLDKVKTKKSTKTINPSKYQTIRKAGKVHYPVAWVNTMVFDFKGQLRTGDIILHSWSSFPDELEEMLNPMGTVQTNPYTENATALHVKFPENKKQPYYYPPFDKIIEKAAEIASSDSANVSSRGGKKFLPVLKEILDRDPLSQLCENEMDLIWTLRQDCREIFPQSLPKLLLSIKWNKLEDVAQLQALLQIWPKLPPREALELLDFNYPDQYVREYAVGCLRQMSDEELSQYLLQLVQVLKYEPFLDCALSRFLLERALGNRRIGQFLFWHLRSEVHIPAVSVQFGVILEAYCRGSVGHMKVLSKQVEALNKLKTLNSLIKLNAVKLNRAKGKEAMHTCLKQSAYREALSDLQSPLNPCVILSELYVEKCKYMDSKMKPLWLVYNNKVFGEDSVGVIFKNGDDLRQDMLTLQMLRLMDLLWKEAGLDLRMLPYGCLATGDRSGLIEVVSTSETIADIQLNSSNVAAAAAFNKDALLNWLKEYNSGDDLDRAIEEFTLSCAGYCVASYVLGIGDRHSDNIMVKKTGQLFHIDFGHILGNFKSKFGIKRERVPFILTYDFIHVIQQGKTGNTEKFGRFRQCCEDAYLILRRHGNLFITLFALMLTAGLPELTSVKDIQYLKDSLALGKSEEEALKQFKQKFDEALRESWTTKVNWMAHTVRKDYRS
# Sequence (P27986 whole entry partner, canonical isoform): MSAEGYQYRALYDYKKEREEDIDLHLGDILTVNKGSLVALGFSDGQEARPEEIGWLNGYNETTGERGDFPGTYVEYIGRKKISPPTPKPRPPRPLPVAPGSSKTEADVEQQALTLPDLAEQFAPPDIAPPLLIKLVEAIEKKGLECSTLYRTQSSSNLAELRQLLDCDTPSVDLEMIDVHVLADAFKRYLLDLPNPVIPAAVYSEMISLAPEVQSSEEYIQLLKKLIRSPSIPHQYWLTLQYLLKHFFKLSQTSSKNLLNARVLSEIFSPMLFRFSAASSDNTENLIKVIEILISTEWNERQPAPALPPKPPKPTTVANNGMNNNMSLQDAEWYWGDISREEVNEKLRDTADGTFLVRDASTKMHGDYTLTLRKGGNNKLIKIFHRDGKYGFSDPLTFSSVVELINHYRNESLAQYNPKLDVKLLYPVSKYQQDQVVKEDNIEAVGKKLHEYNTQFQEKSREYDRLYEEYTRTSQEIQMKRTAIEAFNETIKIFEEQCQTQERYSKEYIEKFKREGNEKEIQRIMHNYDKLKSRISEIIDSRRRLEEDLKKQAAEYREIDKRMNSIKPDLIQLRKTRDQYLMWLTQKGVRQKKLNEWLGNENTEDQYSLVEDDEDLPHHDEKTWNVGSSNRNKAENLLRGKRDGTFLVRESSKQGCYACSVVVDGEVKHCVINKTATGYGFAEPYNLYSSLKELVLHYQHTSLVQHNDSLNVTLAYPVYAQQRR
# assay-summary: PI3K isoform TR-FRET enzymatic assay (PI3Kβ)
# study-conditions: 2× Km ATP, 30 minutes at 25° C.
Rule: measured IC50 below 30 nM gets satisfied; anything equal to or greater than 30 nM gets not satisfied.

Here's what some known entries look like.
chemical_smiles=Cc1n[nH]c(-c2cc(N3CCOCC3)cc3c2nc(C)n3-c2c(C)cnc3c(Cl)cccc23)n1 assayed_target="PI3Kβ (Homo sapiens (Human), UniProt P42338)" answer_label=satisfied
chemical_smiles=Cc1nnc(-c2cc(N3CCOCC3)cc3c2nc(C)n3-c2ccnc3c(C(F)F)cccc23)[nH]1 assayed_target="PI3Kβ (Homo sapiens (Human), UniProt P42338)" answer_label="not satisfied"
chemical_smiles=Cc1cc(-n2c(C)nc3c(-c4nnc[nH]4)cc(N4CCOCC4)cc32)c2ccc(F)cc2n1 assayed_target="PI3Kβ (Homo sapiens (Human), UniProt P42338)" answer_label=satisfied
chemical_smiles=Cc1nc2c(F)cccc2c(-n2c(C)nc3c(-c4nnc[nH]4)cc(N4CCOCC4)cc32)c1C assayed_target="PI3Kβ (Homo sapiens (Human), UniProt P42338)" answer_label=satisfied
chemical_smiles=CCCc1nc2c(-c3nnc[nH]3)cc(N3CCOCC3)cc2n1-c1ccnc2c(C)ccc(F)c12 assayed_target="PI3Kβ (Homo sapiens (Human), UniProt P42338)" answer_label=satisfied

Record Fc1ccc2c(-n3c(C4CC4)nc4c(-c5nnc[nH]5)cc(N5CCOCC5)cc43)ccnc2c1F : is its IC50 strictly below 30 nM?
not satisfied

Record Cc1nc2c(-c3nnc[nH]3)cc(N3CCOCC3)cc2n1-c1cc(-c2ccccc2)nc2ccccc12 : is its IC50 strictly below 30 nM?
not satisfied

Record CCc1c(C)nc2ccccc2c1-n1cnc2c(-c3nnc[nH]3)cc(N3CCOCC3)cc21 : is its IC50 strictly below 30 nM?
satisfied
